- TGT: T1, human Protein S (human, UniProt P07225 42-676)
- T1 construct: also called ProS; ProS1
- T1 sequence: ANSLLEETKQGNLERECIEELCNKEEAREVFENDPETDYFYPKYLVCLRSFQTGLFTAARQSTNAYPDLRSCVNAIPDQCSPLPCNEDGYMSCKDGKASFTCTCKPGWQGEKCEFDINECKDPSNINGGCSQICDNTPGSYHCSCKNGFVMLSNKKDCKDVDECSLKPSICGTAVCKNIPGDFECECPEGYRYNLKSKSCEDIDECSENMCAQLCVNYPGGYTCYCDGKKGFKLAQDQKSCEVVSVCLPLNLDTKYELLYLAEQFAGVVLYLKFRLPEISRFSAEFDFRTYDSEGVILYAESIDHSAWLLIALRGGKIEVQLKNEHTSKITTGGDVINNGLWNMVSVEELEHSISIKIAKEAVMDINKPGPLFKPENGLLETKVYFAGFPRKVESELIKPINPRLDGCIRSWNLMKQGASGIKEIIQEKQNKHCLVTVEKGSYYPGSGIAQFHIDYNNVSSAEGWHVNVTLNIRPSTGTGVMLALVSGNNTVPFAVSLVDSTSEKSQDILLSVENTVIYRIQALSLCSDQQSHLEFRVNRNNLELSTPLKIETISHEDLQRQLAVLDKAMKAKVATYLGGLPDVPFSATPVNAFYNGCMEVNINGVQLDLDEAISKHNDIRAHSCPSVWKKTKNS
- PROTOCOL: ELISA; plate coated with human Protein S; 1 µg/ml antibody; 1 mM calcium chloride
MEASUREMENT_LABEL: Binding to Protein S in CaCl2 (OD)
Report as a plain number; the unit OD is understood.

Known results for binders:
The reported value for Antibody 33 (antibody, V domains shown, Human variable region with rat Fc) VH: QVQLQQSGPGLVKPSQTLSLTCAISGDSVSNNNAAWNWIRQSPSRGLEWLGGTYYRSKWYNDYAVSVKSRIIINPVTSKNQFSLQLNSVTPEDTAVYYCARGSSWYRFFDYWGQGTLVTVSS VL: EIVLTQSPGTLSLSPGERATLSCRASQSVGSSYLAWYQQKPGQAPRLLISGASGRATGIPDRFSGSGSGTDFTLTISRLEPEDFTVYYCQQYGSSPYTFGQGTKLEIK in terms of Binding to Protein S in CaCl2 (OD) is 1.23

In plain terms, Antibody 31 (antibody, V domains shown, Human variable region with rat Fc) VH: QVQLQESGPGLVKPSETLSLTCTVSGGSISGNYWSWIRQPPGKGLEWIGYIYYSGSTNYNPSLKSRVTISVDTSKNQFSLKLSSVTAADTAVYYCARDLDYFTWGAYSDWYFDLWGRGTLVTVSS VL: DIQMTQSPSSLSASVGDRVTITCRASQSISTFLNWYQQKPGKAPKLLIYATSSLRSGVPSRFSGSGSGTDFTLTISSLQPEDFAIYYCQQSYSTPRTFGQGTQVEIK has a documented Binding to Protein S in CaCl2 (OD) of 1.03

Let us move to another entry and its Binding to Protein S in CaCl2 (OD).
GET /value?item= Antibody 40 (antibody, V domains shown, Human variable region with rat Fc) VH: EVQLVESGGGLVQPGGSLRLSCAASGFTFSSYSMNWVRQAPGKGLEWVAYISSSTRTIFYADSVKGRFTISRDNAKNSLYLQMNSLRDEDTAFYYCARERSAFDYWGQGTLVTVSS VL: SYVLTQPPSVSVAPGQTARITCGGDNIGGKSVHWYQQKPGQAPVMVVYDDSDRPSGIPERFAGSNSGNTATLAISRVEAGDEADYYCQVWEITSDHPAFGGGTRLTVL &field=Binding to Protein S in CaCl2 (OD) returns 0.51
